# credit: ChEMBL document CHEMBL5058577

Test system: U2OS
Test: Multiplex assay against U2OS
Assay type: toxicity, cell-based
Details: human, 24 h, 1 µM, compound concentration 1 uM, replicate 1
ASSAY_METRIC: Population Tubulin-Different-Phenotype (%)
Respond numerically; units are % and should not be typed.

As a guide, the following entries are already answered.
MOLECULE	MEASURED
CCNC1(C(N)=O)CCN(c2ncnc3c2nc(-c2ccccc2Cl)n3-c2ccc(Cl)cc2)CC1 [OTENABANT]	7
CN(C)c1ccnc2sc3c(=O)n(N4CCCCCC4)cnc3c12	1
Cc1ccccc1C(=O)Nc1ccc(C(=O)N2CCCC(N(C)C)c3ccccc32)cc1.Cl (centres undefined)	4
COc1cc(C(=O)N(CCCc2ccccc2)Cc2ccc(CC(=O)O)cc2)cc(OC)c1C	4
c1cc(OCCCN2CCCCC2)ccc1CN1CCCCC1 [JNJ-5207852]	2

Read the next record carefully.
Enquiry: Fill in reported Population Tubulin-Different-Phenotype (%) for this entry: `CN(C)CCCc1cc(C(=O)Nc2ccc(-c3ccncc3)cc2)ccc1O.Cl.Cl`
Return: 3

* * *

Tested on: U2OS
Test: Multiplex assay against U2OS
Assay type: toxicity, cell-based
Settings: human, 12 h, 1 µM, compound concentration 1 uM, replicate 2
Threshold check on Population Tubulin-Different-Phenotype (%): at or above 8% gives true, strictly below gives false.

SMILES_ENTRY	SYSTEM_UNDER_TEST	CLASS_LABEL
O=C1COc2nccc(-c3ccccc3F)c2CN1Cc1cc(C(F)(F)F)cc(C(F)(F)F)c1	U2OS	true

Now for another entry.
Enquiry: Determine whether measured Population Tubulin-Different-Phenotype (%) meets or exceeds 8% for `COc1c(C)cc(NC(=O)c2nn(Cc3ccc(F)cc3)c3c2CN(C(=O)c2ccc[nH]2)C[C@]3(C)C(N)=O)cc1C`
Return: true

* * *

System: Fibroblast
Test: Multiplex assay against human fibroblast
Format: toxicity, cell-based
Conditions: 48 h, 10 µM, compound concentration 10 uM, replicate 1
Each record's class is read off its Population Apoptotic (%) using these ranges: L = under 60%, M = from 60% up to 70%, H = 70% and over

COMPOUND	SYSTEM_UNDER_TEST	CLASS_LABEL
COc1cc(C(=O)N(CCCc2ccccc2)Cc2ccc(CC(=O)O)cc2)cc(OC)c1C	Fibroblast	H
C[C@@H]1C[C@H]2[C@@H]3CCC4=CC(=O)C=C[C@]4(C)[C@@]3(F)[C@@H](O)C[C@]2(C)[C@@]1(O)C(=O)CO	Fibroblast	L
C[C@H](NC(=O)c1c(C(F)F)nn(C)c1Oc1cccc(C(F)(F)F)c1)c1ccc(C(=O)O)cc1	Fibroblast	H
O=S(=O)(c1ccccc1)c1cnc2c(N3CCNCC3)cccc2c1 [INTEPIRDINE]	Fibroblast	M
CN1CCN(c2nc3cc(C(F)(F)F)ccc3n3cccc23)CC1.O=C(O)/C=C\C(=O)O.O=C(O)/C=C\C(=O)O	Fibroblast	H

Enquiry: Could you place `CN(C)CCCc1cc(C(=O)Nc2ccc(-c3ccncc3)cc2)ccc1O.Cl.Cl` in its proper category? Many thanks.
Return: L

Enquiry: Could you place `N[C@@]1(C(=O)O)CO[C@H]2[C@H](C(=O)O)[C@H]21` in its proper category? Many thanks.
Return: M

Enquiry: Could you place CNC[C@H](O)c1ccc(O)c(O)c1 [EPINEPHRINE] in its proper category? Many thanks.
Return: H

* * *

System: HEK-293T
Experiment: Multiplex assay against HEK293T
Assay type: toxicity, cell-based
Conditions: human, 12 h, 10 µM, compound concentration 10 uM, replicate 2
ASSAY_METRIC: Population Tubulin-Different-Phenotype (%)
Respond numerically; units are % and should not be typed.

COMPOUND	MEASURED
Cc1ccc(F)cc1C(=O)Nc1ccc(C(=O)N2Cc3cccn3Cc3ccccc32)c(Cl)c1 [LIXIVAPTAN]	67
COc1cc(C(=O)N(CCCc2ccccc2)Cc2ccc(CC(=O)O)cc2)cc(OC)c1C	44
CCCn1c(=O)c2[nH]c(C3CCCC3)nc2n(CCC)c1=O	45
CCCC(CCC)C(=O)O [VALPROIC ACID]	20
N#Cc1c(N)nc(SCc2csc(-c3ccc(Cl)cc3)n2)c(C#N)c1-c1ccc(OCCO)cc1 [CAPADENOSON]	63

Enquiry: Fill in reported Population Tubulin-Different-Phenotype (%) for this entry: `CCOc1c2c(c(OCC)c3ncccc13)CN(c1ccc(CS(=O)(=O)NC(=O)Cc3ccccc3OC)cc1C)C2=O`
Return: 29

Enquiry: Fill in reported Population Tubulin-Different-Phenotype (%) for this entry: CCNC1(C(N)=O)CCN(c2ncnc3c2nc(-c2ccccc2Cl)n3-c2ccc(Cl)cc2)CC1 [OTENABANT]
Return: 43

Enquiry: Fill in reported Population Tubulin-Different-Phenotype (%) for this entry: CC(C)(C)c1ccc(S(=O)(=O)Nc2ccc(Cl)cc2C(=O)c2cc[n+]([O-])cc2)cc1 [VERCIRNON]
Return: 27

Enquiry: Fill in reported Population Tubulin-Different-Phenotype (%) for this entry: `COc1ccccc1N1CCN(CCCCNC(=O)c2ccc3ccccc3c2)CC1.Cl`
Return: 72

* * *

Test system: U2OS
Assay: Multiplex assay against U2OS
Format: toxicity, cell-based
Conditions: human, 48 h, 10 µM, compound concentration 10 uM, replicate 1
Threshold check on Population Mitochondria Different-Phenotype (%): at or above 3% gives TRUE, strictly below gives FALSE.

MOLECULE	CLASS_LABEL
COc1cc(C(=O)N(CCCc2ccccc2)Cc2ccc(CC(=O)O)cc2)cc(OC)c1C	FALSE
CCCN1CCC[C@@H]2Cc3n[nH]cc3C[C@H]21.Cl [QUINPIROLE HYDROCHLORIDE]	FALSE
Cc1ccc(/C(=C\CN2CCCC2)c2ccccn2)cc1	TRUE

Enquiry: Determine whether measured Population Mitochondria Different-Phenotype (%) meets or exceeds 3% for `CC1(COc2ccc3c(c2)ncn3-c2ccc3cccc(N4CCC(N)CC4)c3n2)COC1`
Return: TRUE

Enquiry: Determine whether measured Population Mitochondria Different-Phenotype (%) meets or exceeds 3% for CN1CCN2c3ncccc3Cc3ccccc3C2C1 (stereo not drawn)
Return: TRUE

Enquiry: Determine whether measured Population Mitochondria Different-Phenotype (%) meets or exceeds 3% for `Oc1c(CN2CCN(c3ccccn3)CC2)cc(Cl)c2cccnc12`
Return: TRUE

* * *

Tested on: HEK-293T
Experiment: Multiplex assay against HEK293T
Format: toxicity, cell-based
Conditions: human, 48 h, 10 µM, compound concentration 10 uM, replicate 1
Property: Population Pyknosed Nuclei (%); scope: individual compounds
Respond numerically; units are % and should not be typed.

As a guide, the following entries are already answered.
COMPOUND	SYSTEM_UNDER_TEST	ASSAY_METRIC	MEASURED
CC[C@H]1OC(=O)[C@H](C)[C@@H](O[C@H]2C[C@@](C)(OC)[C@@H](O)[C@H](C)O2)[C@H](C)[C@@H](O[C@@H]2O[C@H](C)C[C@H](N(C)C)[C@H]2O)[C@@]2(C)CC(C)=C(O2)[C@H](C)[C@@H](O)[C@]1(C)O	HEK-293T	Population Pyknosed Nuclei (%)	12
O=C(O)c1cc2ccccc2c(Cc2c(O)c(C(=O)O)cc3ccccc23)c1O [PAMOIC ACID]	HEK-293T	Population Pyknosed Nuclei (%)	7

Enquiry: Fill in reported Population Pyknosed Nuclei (%) for this entry: Cc1ccc(/C(=C\CN2CCCC2)c2ccccn2)cc1 [TRIPROLIDINE]
Return: 9

Enquiry: Fill in reported Population Pyknosed Nuclei (%) for this entry: O=S(=O)(c1ccccc1)c1cnc2c(N3CCNCC3)cccc2c1 [INTEPIRDINE]
Return: 10

Enquiry: Fill in reported Population Pyknosed Nuclei (%) for this entry: Cc1ccccc1C(=O)Nc1ccc(C(=O)N2CCCC(N(C)C)c3ccccc32)cc1.Cl (configuration not stated)
Return: 20

Enquiry: Fill in reported Population Pyknosed Nuclei (%) for this entry: CCNC1(C(N)=O)CCN(c2ncnc3c2nc(-c2ccccc2Cl)n3-c2ccc(Cl)cc2)CC1 [OTENABANT]
Return: 15

Enquiry: Fill in reported Population Pyknosed Nuclei (%) for this entry: CC1(COc2ccc3c(c2)ncn3-c2ccc3cccc(N4CCC(N)CC4)c3n2)COC1 [CRENOLANIB]
Return: 30

* * *

Tested on: U2OS
Assay: Multiplex assay against U2OS
Type: toxicity, cell-based
Settings: human, 12 h, 10 µM, compound concentration 10 uM, replicate 1
Property: Population Apoptotic (%); scope: individual molecules
Respond numerically; units are % and should not be typed.

As a guide, the following entries are already answered.
MOLECULE	Population Apoptotic (%)
O=C(NCCO)c1cccc(-c2cc(Nc3ccc(OC(F)(F)F)cc3)ncn2)c1	84
COc1ccc2c(c1)C(C(=O)N(Cc1ccc(N(C)C)cc1)c1ccc(C(C)C)cc1)CCC2.Cl (centres undefined)	38
CN1CCN(c2nc3cc(C(F)(F)F)ccc3n3cccc23)CC1.O=C(O)/C=C\C(=O)O.O=C(O)/C=C\C(=O)O	66
CN(C)CCCc1cc(C(=O)Nc2ccc(-c3ccncc3)cc2)ccc1O.Cl.Cl	77
O=C1COc2nccc(-c3ccccc3F)c2CN1Cc1cc(C(F)(F)F)cc(C(F)(F)F)c1	70
CCNC1(C(N)=O)CCN(c2ncnc3c2nc(-c2ccccc2Cl)n3-c2ccc(Cl)cc2)CC1	58
COc1cc(NC(=O)CCN2CCC(OC(=O)Nc3ccccc3-c3ccccc3)CC2)c(Cl)cc1CNC[C@H](O)c1ccc(O)c2[nH]c(=O)ccc12	72
N#Cc1c(N)nc(SCc2csc(-c3ccc(Cl)cc3)n2)c(C#N)c1-c1ccc(OCCO)cc1	64

Read the next record carefully.
Enquiry: Fill in reported Population Apoptotic (%) for this entry: Cc1ccccc1C(=O)Nc1ccc(C(=O)N2CCCC(N(C)C)c3ccccc32)cc1.Cl (centres undefined)
Return: 59
